Substrate: [H][C@]12C[C@]([H])(OO1)[C@H](C/C=C\CCCC(=O)O)[C@H]2/C=C/[C@@H](O)CCCCC
Test: PGDS activity kinetics of L-PGDS mutants
Assay type: biochemical, mouse
Settings: other: Km for PGH2, pH=8.0, 25.0 °C
measured.endpoint: Km (µM)
Form entry: value (µM) — number only.

Item mouse L-PGDS mutant K92E (Lys^92Glu) in Cys^89,186Ala construct (Mus musculus; C186A/C89A/K92E) (protein) QGHDTVQPNFQQDKFLGRWYSAGLASNSSWFREKKAVLYMCKTVVAPSTEGGLNLTSTFLRKNQAETEIMVLQPAGAPGHYTYSSPHSGSIHSVSVVEANYDEYALLFSRGTKGPGQDFRMATLYSRTQTLKDELKEKFTTFSKAQGLTEEDIVFLPQPDKAIQE has what recorded Km?
14

Item mouse L-PGDS, Wild Type(C65), Cys^89,186Ala construct, SEQ ID NO:1 (Mus musculus; C186A/C89A) (protein) QGHDTVQPNFQQDKFLGRWYSAGLASNSSWFREKKAVLYMCKTVVAPSTEGGLNLTSTFLRKNQAETKIMVLQPAGAPGHYTYSSPHSGSIHSVSVVEANYDEYALLFSRGTKGPGQDFRMATLYSRTQTLKDELKEKFTTFSKAQGLTEEDIVFLPQPDKAIQE has what recorded Km?
13

Item mouse L-PGDS mutant S45A (Ser^45Ala) in Cys^89,186Ala construct (Mus musculus; C186A/C89A/S45A) (protein) QGHDTVQPNFQQDKFLGRWYAAGLASNSSWFREKKAVLYMCKTVVAPSTEGGLNLTSTFLRKNQAETKIMVLQPAGAPGHYTYSSPHSGSIHSVSVVEANYDEYALLFSRGTKGPGQDFRMATLYSRTQTLKDELKEKFTTFSKAQGLTEEDIVFLPQPDKAIQE has what recorded Km?
11

Item mouse L-PGDS mutant R85E (Arg^85Glu) in Cys^89,186Ala construct (Mus musculus; C186A/C89A/R85E) (protein) QGHDTVQPNFQQDKFLGRWYSAGLASNSSWFREKKAVLYMCKTVVAPSTEGGLNLTSTFLEKNQAETKIMVLQPAGAPGHYTYSSPHSGSIHSVSVVEANYDEYALLFSRGTKGPGQDFRMATLYSRTQTLKDELKEKFTTFSKAQGLTEEDIVFLPQPDKAIQE has what recorded Km?
7

Item mouse L-PGDS mutant F83I (Phe^83Ile) in Cys^89,186Ala construct (Mus musculus; C186A/C89A/F83I) (protein) QGHDTVQPNFQQDKFLGRWYSAGLASNSSWFREKKAVLYMCKTVVAPSTEGGLNLTSTILRKNQAETKIMVLQPAGAPGHYTYSSPHSGSIHSVSVVEANYDEYALLFSRGTKGPGQDFRMATLYSRTQTLKDELKEKFTTFSKAQGLTEEDIVFLPQPDKAIQE has what recorded Km?
15

Item mouse L-PGDS mutant T147A (Thr^147Ala) in Cys^89,186Ala construct (Mus musculus; C186A/C89A/T147A) (protein) QGHDTVQPNFQQDKFLGRWYSAGLASNSSWFREKKAVLYMCKTVVAPSTEGGLNLTSTFLRKNQAETKIMVLQPAGAPGHYTYSSPHSGSIHSVSVVEANYDEYALLFSRGTKGPGQDFRMAALYSRTQTLKDELKEKFTTFSKAQGLTEEDIVFLPQPDKAIQE has what recorded Km?
19

Item mouse L-PGDS mutant S81A (Ser^81Ala) in Cys^89,186Ala construct (Mus musculus; C186A/C89A/S81A) (protein) QGHDTVQPNFQQDKFLGRWYSAGLASNSSWFREKKAVLYMCKTVVAPSTEGGLNLTATFLRKNQAETKIMVLQPAGAPGHYTYSSPHSGSIHSVSVVEANYDEYALLFSRGTKGPGQDFRMATLYSRTQTLKDELKEKFTTFSKAQGLTEEDIVFLPQPDKAIQE has what recorded Km?
12
